compounds and their reported T/C x 100 %
# Test system: lymphocytic leukemia P388
# procedure.details: Lymphocytic leukemia P388 test
# Type: in vivo, BDF1 mice
# condition.details: Dose 6.25 mg/kg intraperitoneally on days 1, 5 and 9
Enter your answer as a number in %; do not include the unit.

Recorded results for 5 compounds are shown here.
| compound | display.unit | observed.measurement |
| --- | --- | --- |
| O=C(O)CCC(=O)N1CCN=C1NN=Cc1c2ccccc2c(C=NNC2=NCCN2C(=O)CCC(=O)O)c2ccccc12 | % | 190 |
| O=C(O)C1CCCCC1C(=O)N1CCN=C1NN=Cc1c2ccccc2c(C=NNC2=NCCN2C(=O)C2CCCCC2C(=O)O)c2ccccc12 (stereo not drawn) | % | 123 |
| O=C(c1ccccc1)N1CCN=C1N(N=Cc1c2ccccc2c(C=NN(C(=O)c2ccccc2)C2=NCCN2C(=O)c2ccccc2)c2ccccc12)C(=O)c1ccccc1 | % | 180 |
| O=C(c1cccc([N+](=O)[O-])c1)N1CCN=C1N(N=Cc1c2ccccc2c(C=NN(C(=O)c2cccc([N+](=O)[O-])c2)C2=NCCN2C(=O)c2cccc([N+](=O)[O-])c2)c2ccccc12)C(=O)c1cccc([N+](=O)[O-])c1 | % | 133 |
| CC(=O)N1CCN=C1N(N=Cc1c2ccccc2c(C=NN(C(C)=O)C2=NCCN2)c2ccccc12)C(C)=O | % | 125 |

Inquiry: Complete the entry with T/C x 100 % for CC(=O)N1CCN=C1NN=Cc1c2ccccc2c(C=NNC2=NCCN2C(C)=O)c2ccccc12
Reply text: 105

* * *

# System: lymphocytic leukemia P388
# procedure.details: Lymphocytic leukemia P388 test
# Type: in vivo, BDF1 mice
# condition.details: Dose 200 mg/kg intraperitoneally on days 1, 5 and 9
molecules and their reported Median Survival
Remember to quote the unit after the number.

Recorded results for 4 molecules are shown here.
| chemical.structure | Median Survival |
| --- | --- |
| N#Cc1ccc(C(=O)N2CCN=C2N(N=Cc2c3ccccc3c(C=NN(C(=O)c3ccc(C#N)cc3)C3=NCCN3C(=O)c3ccc(C#N)cc3)c3ccccc23)C(=O)c2ccc(C#N)cc2)cc1 | 14.5 days |
| CCCC(=O)N1CCN=C1NN=Cc1c2ccccc2c(C=NNC2=NCCN2C(=O)CCC)c2ccccc12 | 15.5 days |
| Cc1ccc(S(=O)(=O)N2CCN=C2NN=Cc2c3ccccc3c(C=NNC3=NCCN3S(=O)(=O)c3ccc(C)cc3)c3ccccc23)cc1 | 14 days |
| COCC(=O)N1CCN=C1N(N=Cc1c2ccccc2c(C=NN(C(=O)COC)C2=NCCN2C(=O)COC)c2ccccc12)C(=O)COC | 16.5 days |

Pending molecule:
Inquiry: Complete the entry with Median Survival for O=C(c1ccco1)N1CCN=C1N(N=Cc1c2ccccc2c(C=NN(C(=O)c2ccco2)C2=NCCN2C(=O)c2ccco2)c2ccccc12)C(=O)c1ccco1
Reply text: 12 days

Source: patent EP0338372A2
